- MEASUREMENT_TARGET: T1, extracellular domain of human ILT3 (huILT3-ECD) (human, UniProt Q8NHJ6 22-259)
- T1 construct: also called human ILT3-ECD
- METHOD_DESCRIPTION: SPR (Biacore), antibody captured via anti-Fc on CM5 chip, soluble ILT3-ECD injected
REPORTED_ENDPOINT: kon

• Hz48A6 B0/C2 (antibody, V domains shown) VH: EVQLVESGGGLVQPGGSLRLSCAASGFTFSSYGMSWVRQAPGKGLEWVATISSGGTYTFYPDSVKGRFTISRDNAKNSLYLQMNSLRAEDTAVYYCARRGWLLHYYAMDYWGQGTSVTVSS VL: DIQLTQSPSFLSASVGDRVTITCRPSESVDSFGNSFMHWFQQKPGKAPKLLIYLSSKLESGVPSRFSGSGSGTEFTLTISSLQPEDFATYYCQQHNEDPFTFGQGTKVEIK = 2.8e+06 M⁻¹ s⁻¹
• 48A6 chimera (antibody, V domains shown, also called parental chimeric 48A6) VH: EVQLVESGGDLMKPGGSLKLSCAASGFTFSSYGMSWVRQTPDKRLEWVATISSGGTYTFYPDSVKGRFTISRDNAKNTLYLQMSSLKSEDTAMYYCARRGWLLHYYAMDYWGQGTSVTVSS VL: NIVLTQSPASLAVSLGQRATISCRPSESVDSFGNSFMHWFQQKPGQPPKLLIYLSSKLESGVPARFSGSGSRTDFTLTIDPVEADDAATYYCQQHNEDPFTFGSGTKLEIK = 1.31e+07 M⁻¹ s⁻¹
• Hz45G10 B1/A4 (antibody, V domains shown) VH: EVQLVESGGGLVKPGGSLRLSCAASGFTFSDYGMHWVRQAPGKGLEWVSYIFSGSSTIYYADTVKGRFTISRDNAKNSLYLQMNSLRAEDTAVYYCARADGRGAMDYWGQGTLVTVSS VL: DIQMTQSPSSLSASVGDRVTITCRASQDISKFLNWYQQKPGKAPKLLIYYTSRLHSGVPSRFSGSGSGTDFTFTISSLQPEDIATYFCQQGNTLPWTFGGGTKLEIK = 1.3e+06 M⁻¹ s⁻¹
